Measured Ambulatory night activity of individual entries
System: mice fed a high-fat diet
protocol_notes: Indirect energy expenditure and physical activity measurement
Assay type: in vivo
study_conditions: photobeam break counts; after 12 weeks daily i.p. 5 mg/kg on high-fat diet; vehicle 6,289 ± 1,216
Where a SMILES comes first, the peptide text is derived from it. [ ]: non-standard residue; d: D form. Pro(trans-4-F) = O=C(O)[C@@H]1C[C@@H](F)CN1; Thz = O=C(O)[C@@H]1CSCN1

compound: CC(=O)N[C@@H](CCCCN)C(=O)N1C[C@H](F)C[C@H]1C(=O)N[C@@H](C)C(=O)N[C@@H](CC(C)C)C(=O)N[C@@H](CCCCN)C(N)=O [Peptide 60, Ac-K(t)ALK-NH2] (Ac-K[Pro(trans-4-F)]ALK-NH2)
measured_quantity: Ambulatory night activity
result: 5,993 ± 1,278 per 12 h

Problem: Query (compound): CC(=O)N[C@@H](CCCCN)C(=O)N1CSC[C@H]1C(=O)N[C@@H](C)C(=O)N[C@H](C(=O)N[C@@H](CCCCN)C(N)=O)[C@@H](C)O [Peptide 49, Ac-K(r)ATK-NH2] (Ac-K[Thz]ATK-NH2) ; field requested: Ambulatory night activity
Solution: 20,126 ± 2,914 per 12 h

====

measurement_target: Cbl (RING) protein (Homo sapiens)
Sequence (P22681 358-457): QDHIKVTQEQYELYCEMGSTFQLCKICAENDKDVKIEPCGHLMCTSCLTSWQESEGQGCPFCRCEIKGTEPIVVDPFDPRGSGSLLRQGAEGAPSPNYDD
pKi: −log10 of the molar value. Where a SMILES comes first, the peptide text is derived from it. [ ]: non-standard residue; d: D form. Phe(3-F) = N[C@@H](Cc1cccc(F)c1)C(=O)O; Thz = O=C(O)[C@@H]1CSCN1
Mark 0 for pKi values under 5, and 1 for everything at or above.

Problem: API: above_or_equal(metric=pKi, cutoff=5) for item CC(=O)N1CSC[C@H]1C(=O)N[C@@H](Cc1cccc(F)c1)C(=O)N[C@@H](CCCCN)C(=O)N1CCC[C@H]1C(=O)N1CCC[C@H]1C(N)=O [Peptide 34, Ac-(r) (h)KPP-NH2] (Ac-[Thz][Phe(3-F)]KPP-NH2)
Solution: 1

====

// values below are reported adipocyte volume
Test system: mice fed a high-fat diet
protocol_notes: High-fat diet-induced obesity: body weight, food intake, body composition, adipocyte volume
Type: in vivo
study_conditions: daily i.p. 5 mg/kg, 12 weeks, adipocytes from epididymal fat pad, vehicle 510 ± 42 pL
Experimental: All experiments were approved by the institutional Animal Care and Use Committee (Chengdu Medical College, China). All experiments were carried out in 10-week-old male mice maintained on the C57BL/6 background. […] Animals (n = 90) were randomly assigned to one of the nine groups (Table 1). […] Food intake was measured manually on a daily basis. […] Body composition was measured using nuclear magnetic resonance (NMR) technology at Chengdu College core facility. […]
Where a SMILES comes first, the peptide text is derived from it. [ ]: non-standard residue; d: D form. Pro(trans-4-F) = O=C(O)[C@@H]1C[C@@H](F)CN1; Phe(3-F) = N[C@@H](Cc1cccc(F)c1)C(=O)O; Phg = N[C@H](C(=O)O)c1ccccc1; Thz = O=C(O)[C@@H]1CSCN1
// units = pL; emit number, no label

These recorded examples may help you get a feel for the data.
compound: CC(=O)N1CCC[C@H]1C(=O)N[C@@H](Cc1cccc(F)c1)C(=O)N[C@@H](CCCCN)C(=O)N1CCC[C@H]1C(=O)N1CCC[C@H]1C(N)=O [Peptide 10, Ac-P(h)KPP-NH2] (Ac-P[Phe(3-F)]KPP-NH2)
adipocyte volume (pL): 295

compound: CC(=O)N[C@@H](CCCCN)C(=O)N1CSC[C@H]1C(=O)N[C@@H](C)C(=O)N[C@H](C(=O)N[C@@H](CCCCN)C(N)=O)[C@@H](C)O [Peptide 49, Ac-K(r)ATK-NH2] (Ac-K[Thz]ATK-NH2)
adipocyte volume (pL): 230

compound: CC(=O)N1CCC[C@H]1C(=O)N[C@H](C(=O)N[C@@H](CCCCN)C(=O)N1CCC[C@H]1C(=O)N1CCC[C@H]1C(N)=O)c1ccccc1 [Peptide 3, Ac-P(a)KPP-NH2] (Ac-P[Phg]KPP-NH2)
adipocyte volume (pL): 505

compound: CC(=O)N[C@@H](CCCCN)C(=O)N1C[C@H](F)C[C@H]1C(=O)N[C@@H](C)C(=O)N[C@@H](CC(C)C)C(=O)N[C@@H](CCCCN)C(N)=O [Peptide 60, Ac-K(t)ALK-NH2] (Ac-K[Pro(trans-4-F)]ALK-NH2)
adipocyte volume (pL): 520

compound: CC(=O)N[C@@H](CCCCN)C(=O)N1C[C@H](F)C[C@H]1C(=O)N[C@@H](C)C(=O)N[C@H](C(=O)N[C@@H](CCCCN)C(N)=O)[C@@H](C)O [Peptide 51, Ac-K(t)ATK-NH2] (Ac-K[Pro(trans-4-F)]ATK-NH2)
adipocyte volume (pL): 250

Now take the following compound into account.
Problem: Fill blank: measured adipocyte volume of the compound CC(=O)N1CSC[C@H]1C(=O)N[C@@H](Cc1cccc(F)c1)C(=O)N[C@@H](CCCCN)C(=O)N1CCC[C@H]1C(=O)N1CCC[C@H]1C(N)=O [Peptide 34, Ac-(r) (h)KPP-NH2] (Ac-[Thz][Phe(3-F)]KPP-NH2) is ____.
Solution: 258
